Measured on: α2C receptor (Homo sapiens, UniProt P18825)
Construct: host or cells: LM(tk-) cells, line L-α2C
Sequence (P18825 1-462): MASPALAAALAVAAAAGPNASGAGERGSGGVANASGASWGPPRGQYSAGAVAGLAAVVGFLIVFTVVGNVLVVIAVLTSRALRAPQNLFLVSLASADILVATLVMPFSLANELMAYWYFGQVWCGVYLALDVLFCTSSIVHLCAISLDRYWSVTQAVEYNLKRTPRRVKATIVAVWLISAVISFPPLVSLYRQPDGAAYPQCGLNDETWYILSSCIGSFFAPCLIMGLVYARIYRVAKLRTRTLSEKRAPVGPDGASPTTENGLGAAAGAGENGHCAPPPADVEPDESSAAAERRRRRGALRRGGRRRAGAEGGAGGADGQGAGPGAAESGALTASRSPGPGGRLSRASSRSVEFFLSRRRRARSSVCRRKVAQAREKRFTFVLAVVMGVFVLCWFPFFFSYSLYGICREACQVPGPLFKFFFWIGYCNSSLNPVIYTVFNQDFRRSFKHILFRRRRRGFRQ
Test protocol: Competition binding, [3H]rauwolscine, human α2C receptor
Condition set: pKi alpha-2 2c, [3H]rauwolscine, LM(tk-) cell line L-α2C; SEM and n in lines below
Recorded metric: Ki (nM)
Give the value in nM but do not write nM after it.

Case CCC1=C(C(N)=O)C(c2ccc([N+](=O)[O-])cc2)C(C(=O)NCCCN2CCC(c3ccccc3)(c3ccccc3)CC2)=C(CC)N1 (stereo not shown) [Example 42] , α2C receptor (Homo sapiens, UniProt P18825), Ki recorded as 170

---

Measured on: α1A Human Adrenergic Receptor (Homo sapiens)
Construct: The entire coding region of α1A (1719 bp); expressed in transfected cells
Sequence (P25100 1-572): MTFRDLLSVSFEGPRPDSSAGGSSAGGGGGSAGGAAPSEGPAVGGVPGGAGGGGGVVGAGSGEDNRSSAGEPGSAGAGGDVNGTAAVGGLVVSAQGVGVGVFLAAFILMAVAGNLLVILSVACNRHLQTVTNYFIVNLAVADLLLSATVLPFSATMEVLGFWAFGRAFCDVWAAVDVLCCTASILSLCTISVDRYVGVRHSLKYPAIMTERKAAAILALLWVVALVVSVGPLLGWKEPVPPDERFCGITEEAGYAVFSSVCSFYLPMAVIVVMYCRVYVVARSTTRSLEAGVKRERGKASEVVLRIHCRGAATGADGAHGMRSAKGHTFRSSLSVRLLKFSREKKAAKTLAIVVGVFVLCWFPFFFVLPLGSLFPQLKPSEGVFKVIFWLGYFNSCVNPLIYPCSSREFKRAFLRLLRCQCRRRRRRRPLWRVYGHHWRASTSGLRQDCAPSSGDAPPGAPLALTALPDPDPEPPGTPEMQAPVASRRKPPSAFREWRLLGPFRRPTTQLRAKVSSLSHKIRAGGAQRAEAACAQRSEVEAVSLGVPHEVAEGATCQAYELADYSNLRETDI
Test protocol: Radioligand binding, [3H]prazosin, cloned human α1A adrenergic receptor
Condition set: [3H]prazosin, cloned human receptor, LM(tk-) cell membranes; mean; read-out: PKi alpha-1 1a (converted)
Mark t for Ki under 3000 nM, f if at or over.

### Prompt Answer whether the compound CCOC(=O)C1(c2ccccc2)CCN(CCCNC(=O)C2=C(CC)NC(CC)=C(C(=O)NC)C2c2ccc([N+](=O)[O-])cc2)CC1 (stereo not drawn) [Example 181] has Ki strictly less than 3000 nM
### Response f

### Prompt Answer whether the compound CCOC(=O)C1=C(C)NC(C)=C(C(=O)NCCCN2CCC(C(=O)OC)(c3ccccc3)CC2)C1c1ccc([N+](=O)[O-])cc1 (stereo not drawn) [Example 208] has Ki strictly less than 3000 nM
### Response t

### Prompt Answer whether the compound CCC1=C(C(=O)NC)C(c2ccc([N+](=O)[O-])cc2)C(C(=O)NCCCN2CCC(C(=O)OC)(c3ccccc3)CC2)=C(COCCN=[N+]=[N-])N1 (stereo not drawn) [Example 228] has Ki strictly less than 3000 nM
### Response f

### Prompt Answer whether the compound COC(=O)C1(c2ccccc2)CCN(CCCNC(=O)C2=C(CCCCN)NC(C)=C(C(C)=O)C2c2ccc([N+](=O)[O-])cc2)CC1 (stereo not drawn) [Example 178] has Ki strictly less than 3000 nM
### Response t

### Prompt Answer whether the compound CCC1=C(C(N)=O)C(c2ccc([N+](=O)[O-])cc2)C(C(=O)NCCCN2CCC(C(=O)OC)(c3ccccc3)CC2)=C(COCCN)N1 (stereo not drawn) [Example 234] has Ki strictly less than 3000 nM
### Response t

### Prompt Answer whether the compound CCOC(=O)C1(c2ccccc2)CCN(CCCNC(=O)C2=C(COCCN)NC(CC)=C(C(=O)NC)C2c2ccc([N+](=O)[O-])cc2)CC1 (stereo not drawn) [Example 194] has Ki strictly less than 3000 nM
### Response f

### Prompt Answer whether the compound CCC1=C(C(N)=O)C(c2ccc([N+](=O)[O-])cc2)C(C(=O)NCCCN2CCC(C(=O)OC)(c3ccccc3)CC2)=C(CCCCN)N1 (stereo not drawn) [Example 166] has Ki strictly less than 3000 nM
### Response t

### Prompt Answer whether the compound CCOC(=O)C1(c2ccccc2)CCN(CCCNC(=O)C2=C(COCCN)NC(CC)=C(C(N)=O)C2c2ccc([N+](=O)[O-])cc2)CC1 (stereo not drawn) [Example 193] has Ki strictly less than 3000 nM
### Response t

### Prompt Answer whether the compound COC(=O)C1=C(C)NC(C)=C(C(=O)NCCCN2CCC(C(=O)OC)(c3ccccc3)CC2)C1c1ccc([N+](=O)[O-])cc1 (stereo not drawn) [Example 206] has Ki strictly less than 3000 nM
### Response t

### Prompt Answer whether the compound CCC1=C(C(N)=O)C(c2ccc([N+](=O)[O-])cc2)C(C(=O)NCCCN2CCC(C(=O)OC)(c3ccccc3)CC2)=C(CCCCN=[N+]=[N-])N1 (stereo not drawn) [Example 165] has Ki strictly less than 3000 nM
### Response t

### Prompt Answer whether the compound CCOC(=O)C1(c2ccccc2)CCN(CCCNC(=O)C2=C(COCCN)NC(CC)=C(C(=O)O)C2c2ccc([N+](=O)[O-])cc2)CC1 (stereo not drawn) [Example 196] has Ki strictly less than 3000 nM
### Response f
